Recorded values, source the supplement of paper PMC11061612.

Known combination Emax of a selection of compounds
# Tested on: NCI-H2052 (Mesothelioma)
# TEST_DETAILS: combination Emax (second highest fraction inhibited in the dose matrix, 72 h); higher = more inhibition; extreme values may be limits of the assay

COMPOUND: CCN(CCO)CCCOc1ccc2c(Nc3cc(CC(=O)Nc4cccc(F)c4)[nH]n3)ncnc2c1 [AZD2811] + O=C(c1cc(Cc2n[nH]c(=O)c3ccccc23)ccc1F)N1CCN(C(=O)C2CC2)CC1 [Olaparib] (first compound max 1 µM, 7x7, partner max 10 µM)
combination Emax: 0.184
--
COMPOUND: C=CCn1c(=O)c2cnc(Nc3ccc(N4CCN(C)CC4)cc3)nc2n1-c1cccc(C(C)(C)O)n1 [AZD1775] + O=C(c1cc(Cc2n[nH]c(=O)c3ccccc23)ccc1F)N1CCN(C(=O)C2CC2)CC1 [Olaparib] (first compound max 1 µM, partner max 10 µM)
combination Emax: 0.467
--
COMPOUND: CC(=O)c1c(C)c2cnc(Nc3ccc(N4CCNCC4)cn3)nc2n(C2CCCC2)c1=O [Palbociclib] + Cn1cnc2c(F)c(Nc3ccc(Br)cc3Cl)c(C(=O)NOCCO)cc21 [Selumetinib] (first compound max 10 µM, 7x7, partner max 10 µM)
combination Emax: 0.189

---

Form field: combination Emax (one value per entry).
# System: LOXIMVI (Melanoma)
# TEST_DETAILS: combination Emax (second highest fraction inhibited in the dose matrix, 72 h); higher = more inhibition; extreme values may be limits of the assay
OBSERVED_PROPERTY: combination Emax

COMPOUND: CN(C)CCCOc1ccc(-c2ccc3ncc4c(c3c2)n(C2CCOCC2)c(=O)n4C)cn1 [AZD0156] + C=CCn1c(=O)c2cnc(Nc3ccc(N4CCN(C)CC4)cc3)nc2n1-c1cccc(C(C)(C)O)n1 [AZD1775] (first compound max 1 µM, partner max 1 µM)
TEST_VALUE: 0.753
//
COMPOUND: C[C@@H](Oc1cc(-c2cnn(C3CCNCC3)c2)cnc1N)c1c(Cl)ccc(F)c1Cl [Crizotinib] + CC1=C(C(=CC=C1)Cl)NC(=O)C2=CN=C(S2)NC3=CC(=NC(=N3)C)N4CCN(CC4)CCO [Dasatinib] (first compound max 10 µM, 7x7, partner max 2 µM)
TEST_VALUE: 0.972
//
COMPOUND: CN(CCO)CC[C@H](CSc1ccccc1)Nc1ccc(S(=O)(=O)NC(=O)c2ccc(N3CCC([C@@H](O)c4ccccc4-c4ccc(Cl)cc4)CC3)cc2)cc1S(=O)(=O)C(F)(F)F [AZD4320] + Nc1ccn([C@@H]2O[C@H](CO)[C@@H](O)C2(F)F)c(=O)n1 [Gemcitabine] (first compound max 1 µM, 7x7, partner max 0.3 µM)
TEST_VALUE: 0.925

---

Recorded combination Emax values for a group of compounds are listed next.
# Test system: SW1710 (Bladder Carcinoma)
# TEST_DETAILS: combination Emax (second highest fraction inhibited in the dose matrix, 72 h); higher = more inhibition; extreme values may be limits of the assay
OBSERVED_PROPERTY: combination Emax

COMPOUND: Cn1cnc2c(F)c(Nc3ccc(Br)cc3Cl)c(C(=O)NOCCO)cc21 [Selumetinib] + C=CCn1c(=O)c2cnc(Nc3ccc(N4CCN(C)CC4)cc3)nc2n1-c1cccc(C(C)(C)O)n1 [AZD1775] (first compound max 10 µM, partner max 1 µM)
ASSAY_SYSTEM: SW1710 (Bladder Carcinoma)
TEST_VALUE: 0.264

COMPOUND: Cc1c2c(nn1C)CSCc1cc(n(C)n1)CSc1cc(c3ccccc3c1)OCCCc1c(C(=O)O)n(C)c3c-2c(Cl)ccc13 [AZD5991] + CS(=O)(=O)CCNCc1ccc(-c2ccc3ncnc(Nc4ccc(OCc5cccc(F)c5)c(Cl)c4)c3c2)o1 [Lapatinib] (first compound max 1 µM, 7x7, partner max 10 µM)
ASSAY_SYSTEM: SW1710 (Bladder Carcinoma)
TEST_VALUE: 0.185

COMPOUND: C=CCn1c(=O)c2cnc(Nc3ccc(N4CCN(C)CC4)cc3)nc2n1-c1cccc(C(C)(C)O)n1 [AZD1775] + C1CN(CCC1(C(=O)N[C@@H](CCO)C2=CC=C(C=C2)Cl)N)C3=NC=NC4=C3C=CN4 [Capivasertib] (first compound max 3 µM, partner max 3 µM)
ASSAY_SYSTEM: SW1710 (Bladder Carcinoma)
TEST_VALUE: 0.475

COMPOUND: CN(CCO)CC[C@H](CSc1ccccc1)Nc1ccc(S(=O)(=O)NC(=O)c2ccc(N3CCC([C@@H](O)c4ccccc4-c4ccc(Cl)cc4)CC3)cc2)cc1S(=O)(=O)C(F)(F)F [AZD4320] + C=CCn1c(=O)c2cnc(Nc3ccc(N4CCN(C)CC4)cc3)nc2n1-c1cccc(C(C)(C)O)n1 [AZD1775] (first compound max 1 µM, partner max 1 µM)
ASSAY_SYSTEM: SW1710 (Bladder Carcinoma)
TEST_VALUE: 0.418

---

Examples of compounds with documented Bliss excess follow.
# Tested on: Hs-746T (Gastric Carcinoma)
# TEST_DETAILS: Bliss excess, mean over the matrix (fraction); higher = more synergy
OBSERVED_PROPERTY: Bliss excess

COMPOUND: CN(CCO)CC[C@H](CSc1ccccc1)Nc1ccc(S(=O)(=O)NC(=O)c2ccc(N3CCC([C@@H](O)c4ccccc4-c4ccc(Cl)cc4)CC3)cc2)cc1S(=O)(=O)C(F)(F)F [AZD4320] + C=CCn1c(=O)c2cnc(Nc3ccc(N4CCN(C)CC4)cc3)nc2n1-c1cccc(C(C)(C)O)n1 [AZD1775] (first compound max 1 µM, partner max 1 µM)
ASSAY_SYSTEM: Hs-746T (Gastric Carcinoma)
TEST_VALUE: -0.0054
//
COMPOUND: CC1(C)CCC(CN2CCN(c3ccc(C(=O)NS(=O)(=O)c4ccc(NCC5CCOCC5)c([N+](=O)[O-])c4)c(Oc4cnc5[nH]ccc5c4)c3)CC2)=C(c2ccc(Cl)cc2)C1 [Venetoclax] + CN(C)CCCOc1ccc(-c2ccc3ncc4c(c3c2)n(C2CCOCC2)c(=O)n4C)cn1 [AZD0156] (first compound max 1 µM, 7x7, partner max 1 µM)
ASSAY_SYSTEM: Hs-746T (Gastric Carcinoma)
TEST_VALUE: -0.0043
//
COMPOUND: COc1nnc2ccc(N3CCC(c4ccc(OCCN5CCN(C)C(=O)[C@H]5C)cc4)CC3)nn12 [AZD5153] + CN(CC[C@H](CSC1=CC=CC=C1)NC2=C(C=C(C=C2)S(=O)(=O)NC(=O)C3=CC=C(C=C3)N4CCC(CC4)[C@H](C5=CC=CC=C5C6=CC=C(C=C6)Cl)O)S(=O)(=O)C(F)(F)F)CCO [AZD4320] (first compound max 1 µM, 7x7, partner max 1 µM)
ASSAY_SYSTEM: Hs-746T (Gastric Carcinoma)
TEST_VALUE: 0.0125
//
COMPOUND: C[C@@H](c1ccc2nccn2c1)n1nnc2ncc(-c3cnn(C)c3)nc21 [Savolitinib] + CC1(C)CCC(CN2CCN(c3ccc(C(=O)NS(=O)(=O)c4ccc(NCC5CCOCC5)c([N+](=O)[O-])c4)c(Oc4cnc5[nH]ccc5c4)c3)CC2)=C(c2ccc(Cl)cc2)C1 [Venetoclax] (first compound max 1 µM, 7x7, partner max 1 µM)
ASSAY_SYSTEM: Hs-746T (Gastric Carcinoma)
TEST_VALUE: -0.0105
//
COMPOUND: Cc1nc(Nc2ncc(C(=O)Nc3c(C)cccc3Cl)s2)cc(N2CCN(CCO)CC2)n1 [Dasatinib] + CC(=O)Nc1cccc(-n2c(=O)n(C3CC3)c(=O)c3c(Nc4ccc(I)cc4F)n(C)c(=O)c(C)c32)c1 [Trametinib] (first compound max 2 µM, 7x7, partner max 1 µM)
ASSAY_SYSTEM: Hs-746T (Gastric Carcinoma)
TEST_VALUE: -0.0943

---

# Tested on: SNU-449 (Hepatocellular Carcinoma)
# TEST_DETAILS: Bliss excess, mean over the matrix (fraction); higher = more synergy
YES means recorded Bliss excess is -0.07 or above; NO means it is below -0.07.

COMPOUND: CN(CCO)CC[C@H](CSc1ccccc1)Nc1ccc(S(=O)(=O)NC(=O)c2ccc(N3CCC([C@@H](O)c4ccccc4-c4ccc(Cl)cc4)CC3)cc2)cc1S(=O)(=O)C(F)(F)F [AZD4320] + CN(C)CCCOc1ccc(-c2ccc3ncc4c(c3c2)n(C2CCOCC2)c(=O)n4C)cn1 [AZD0156] (first compound max 1 µM, 7x7, partner max 1 µM)
CAT: NO
--
COMPOUND: Cn1cnc2c(F)c(Nc3ccc(Br)cc3Cl)c(C(=O)NOCCO)cc21 [Selumetinib] + C=CCn1c(=O)c2cnc(Nc3ccc(N4CCN(C)CC4)cc3)nc2n1-c1cccc(C(C)(C)O)n1 [AZD1775] (first compound max 10 µM, partner max 1 µM)
CAT: YES
--
COMPOUND: Cc1c2c(nn1C)CSCc1cc(n(C)n1)CSc1cc(c3ccccc3c1)OCCCc1c(C(=O)O)n(C)c3c-2c(Cl)ccc13 [AZD5991] + C[C@@H](Nc1cc(F)cc(F)c1)c1cc(C(=O)N(C)C)cc2c(=O)cc(N3CCOCC3)oc12 [AZD8186] (first compound max 1 µM, 7x7, partner max 3 µM)
CAT: NO
--
COMPOUND: Cc1c2c(nn1C)CSCc1cc(n(C)n1)CSc1cc(c3ccccc3c1)OCCCc1c(C(=O)O)n(C)c3c-2c(Cl)ccc13 [AZD5991] + C=CCn1c(=O)c2cnc(Nc3ccc(N4CCN(C)CC4)cc3)nc2n1-c1cccc(C(C)(C)O)n1 [AZD1775] (first compound max 1 µM, partner max 1 µM)
CAT: YES
--
COMPOUND: CC1(C)CCC(CN2CCN(c3ccc(C(=O)NS(=O)(=O)c4ccc(NCC5CCOCC5)c([N+](=O)[O-])c4)c(Oc4cnc5[nH]ccc5c4)c3)CC2)=C(c2ccc(Cl)cc2)C1 [Venetoclax] + CS(=O)(=O)CCNCc1ccc(-c2ccc3ncnc(Nc4ccc(OCc5cccc(F)c5)c(Cl)c4)c3c2)o1 [Lapatinib] (first compound max 1 µM, 7x7, partner max 10 µM)
CAT: YES
